target: CD16A V158 (human, UniProt P08637 17-208, limits assumed); test: Table 3; relative to wild-type Fc; method not stated
Sequence (P08637 17-208 F176V limits assumed): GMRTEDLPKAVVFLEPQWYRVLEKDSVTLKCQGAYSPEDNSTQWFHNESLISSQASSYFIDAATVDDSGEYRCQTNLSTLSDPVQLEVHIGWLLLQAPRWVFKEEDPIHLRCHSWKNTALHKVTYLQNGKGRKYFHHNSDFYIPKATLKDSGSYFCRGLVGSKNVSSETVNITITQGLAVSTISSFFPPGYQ
experimental readout: binding relative to wild-type Fc (fold)

{"binder": "Fc variant F243L D270E G316D R416G (other, UniProt P01857-1 99-330, looked up, name in EU numbering, domain: Fc region; positions are EU index) EPKSCDKTHTCPPCPAPELLGGPSVFLLPPKPKDTLMISRTPEVTCVVVDVSHEEPEVKFNWYVDGVEVHNAKTKPREEQYNSTYRVVSVLTVLHQDWLNDKEYKCKVSNKALPAPIEKTISKAKGQPREPQVYTLPPSRDELTKNQVSLTCLVKGFYPSDIAVEWESNGQPENNYKTTPPVLDSDGSFFLYSKLTVDKSGWQQGNVFSCSVMHEALHNHYTQKSLSLSPGK", "experimental readout": "binding relative to wild-type Fc (fold)", "test result": 1.5}
{"binder": "Fc variant F243L R292P Y300L P396L (other, UniProt P01857-1 99-330, looked up, name in EU numbering, domain: Fc region; positions are EU index) EPKSCDKTHTCPPCPAPELLGGPSVFLLPPKPKDTLMISRTPEVTCVVVDVSHEDPEVKFNWYVDGVEVHNAKTKPPEEQYNSTLRVVSVLTVLHQDWLNGKEYKCKVSNKALPAPIEKTISKAKGQPREPQVYTLPPSRDELTKNQVSLTCLVKGFYPSDIAVEWESNGQPENNYKTTPLVLDSDGSFFLYSKLTVDKSRWQQGNVFSCSVMHEALHNHYTQKSLSLSPGK", "experimental readout": "binding relative to wild-type Fc (fold)", "test result": 10.1}
{"binder": "Fc variant R292P V305I P396L (other, UniProt P01857-1 99-330, looked up, name in EU numbering, domain: Fc region; positions are EU index) EPKSCDKTHTCPPCPAPELLGGPSVFLFPPKPKDTLMISRTPEVTCVVVDVSHEDPEVKFNWYVDGVEVHNAKTKPPEEQYNSTYRVVSILTVLHQDWLNGKEYKCKVSNKALPAPIEKTISKAKGQPREPQVYTLPPSRDELTKNQVSLTCLVKGFYPSDIAVEWESNGQPENNYKTTPLVLDSDGSFFLYSKLTVDKSRWQQGNVFSCSVMHEALHNHYTQKSLSLSPGK", "experimental readout": "binding relative to wild-type Fc (fold)", "test result": 1.85}
{"binder": "Fc variant F243L D270E K392T P396L (other, UniProt P01857-1 99-330, looked up, name in EU numbering, domain: Fc region; positions are EU index) EPKSCDKTHTCPPCPAPELLGGPSVFLLPPKPKDTLMISRTPEVTCVVVDVSHEEPEVKFNWYVDGVEVHNAKTKPREEQYNSTYRVVSVLTVLHQDWLNGKEYKCKVSNKALPAPIEKTISKAKGQPREPQVYTLPPSRDELTKNQVSLTCLVKGFYPSDIAVEWESNGQPENNYTTTPLVLDSDGSFFLYSKLTVDKSRWQQGNVFSCSVMHEALHNHYTQKSLSLSPGK", "experimental readout": "binding relative to wild-type Fc (fold)", "test result": 3.16}
{"binder": "Fc variant F243L P247L N421K (other, UniProt P01857-1 99-330, looked up, name in EU numbering, domain: Fc region; positions are EU index) EPKSCDKTHTCPPCPAPELLGGPSVFLLPPKLKDTLMISRTPEVTCVVVDVSHEDPEVKFNWYVDGVEVHNAKTKPREEQYNSTYRVVSVLTVLHQDWLNGKEYKCKVSNKALPAPIEKTISKAKGQPREPQVYTLPPSRDELTKNQVSLTCLVKGFYPSDIAVEWESNGQPENNYKTTPPVLDSDGSFFLYSKLTVDKSRWQQGKVFSCSVMHEALHNHYTQKSLSLSPGK", "experimental readout": "binding relative to wild-type Fc (fold)", "test result": 1.89}
{"binder": "Fc variant P247L D270E N421K (other, UniProt P01857-1 99-330, looked up, name in EU numbering, domain: Fc region; positions are EU index) EPKSCDKTHTCPPCPAPELLGGPSVFLFPPKLKDTLMISRTPEVTCVVVDVSHEEPEVKFNWYVDGVEVHNAKTKPREEQYNSTYRVVSVLTVLHQDWLNGKEYKCKVSNKALPAPIEKTISKAKGQPREPQVYTLPPSRDELTKNQVSLTCLVKGFYPSDIAVEWESNGQPENNYKTTPPVLDSDGSFFLYSKLTVDKSRWQQGKVFSCSVMHEALHNHYTQKSLSLSPGK", "experimental readout": "binding relative to wild-type Fc (fold)", "test result": 1.89}
{"binder": "Fc variant F243L R255L D270E P396L (other, UniProt P01857-1 99-330, looked up, name in EU numbering, domain: Fc region; positions are EU index) EPKSCDKTHTCPPCPAPELLGGPSVFLLPPKPKDTLMISLTPEVTCVVVDVSHEEPEVKFNWYVDGVEVHNAKTKPREEQYNSTYRVVSVLTVLHQDWLNGKEYKCKVSNKALPAPIEKTISKAKGQPREPQVYTLPPSRDELTKNQVSLTCLVKGFYPSDIAVEWESNGQPENNYKTTPLVLDSDGSFFLYSKLTVDKSRWQQGNVFSCSVMHEALHNHYTQKSLSLSPGK", "experimental readout": "binding relative to wild-type Fc (fold)", "test result": 1.75}
{"binder": "Fc variant F243L R292P Y300L V305I P396L (other, UniProt P01857-1 99-330, looked up, name in EU numbering, domain: Fc region) EPKSCDKTHTCPPCPAPELLGGPSVFLLPPKPKDTLMISRTPEVTCVVVDVSHEDPEVKFNWYVDGVEVHNAKTKPPEEQYNSTLRVVSILTVLHQDWLNGKEYKCKVSNKALPAPIEKTISKAKGQPREPQVYTLPPSRDELTKNQVSLTCLVKGFYPSDIAVEWESNGQPENNYKTTPLVLDSDGSFFLYSKLTVDKSRWQQGNVFSCSVMHEALHNHYTQKSLSLSPGK", "experimental readout": "binding relative to wild-type Fc (fold)", "test result": 10.1}
{"binder": "Fc variant D270E G316D R416G (other, UniProt P01857-1 99-330, looked up, name in EU numbering, domain: Fc region; positions are EU index) EPKSCDKTHTCPPCPAPELLGGPSVFLFPPKPKDTLMISRTPEVTCVVVDVSHEEPEVKFNWYVDGVEVHNAKTKPREEQYNSTYRVVSVLTVLHQDWLNDKEYKCKVSNKALPAPIEKTISKAKGQPREPQVYTLPPSRDELTKNQVSLTCLVKGFYPSDIAVEWESNGQPENNYKTTPPVLDSDGSFFLYSKLTVDKSGWQQGNVFSCSVMHEALHNHYTQKSLSLSPGK", "experimental readout": "binding relative to wild-type Fc (fold)", "test result": 2.18}
{"binder": "Fc variant F243L R292P V305I P396L (other, UniProt P01857-1 99-330, looked up, name in EU numbering, domain: Fc region; positions are EU index) EPKSCDKTHTCPPCPAPELLGGPSVFLLPPKPKDTLMISRTPEVTCVVVDVSHEDPEVKFNWYVDGVEVHNAKTKPPEEQYNSTYRVVSILTVLHQDWLNGKEYKCKVSNKALPAPIEKTISKAKGQPREPQVYTLPPSRDELTKNQVSLTCLVKGFYPSDIAVEWESNGQPENNYKTTPLVLDSDGSFFLYSKLTVDKSRWQQGNVFSCSVMHEALHNHYTQKSLSLSPGK", "experimental readout": "binding relative to wild-type Fc (fold)", "test result": 5.37}
